# MEASUREMENT_TARGET: UniProtKB P08684
# MEASUREMENT_PROTOCOL: Inhibition of CYP3A4 in human liver microsomes using testosterone as substrate preincubated for 10 mins followed by NADPH addition measured after 10 mins
# Format: ADME
QUANTITY: pIC50
Hey, just a heads up that pIC50 is the negative log base 10 of the concentration in molar.

Field: example entries. Status: answers known.
[[record]]
cpd_smiles = "CCCCC/C=C/C(=O)CCc1ccc(O)c(OC)c1"
measurement_target = "UniProtKB P08684"
reported_value = 5.08

[[record]]
cpd_smiles = "CCCCCCCCC[C@H](O)CC(=O)CCc1ccc(O)c(OC)c1"
measurement_target = "UniProtKB P08684"
reported_value = 5.15


# context switch: different molecule, same pIC50
Request the reported pIC50 associated with CCCCCCC[C@H](O)CC(=O)CCc1ccc(O)c(OC)c1
5.09

====

# MEASUREMENT_TARGET: UniProt:P10635
# MEASUREMENT_PROTOCOL: Inhibition of CYP2D6 in human liver microsomes assessed as enzyme-mediated metabolite formation at 0.1 uM using dextromethorphan as substrate incubated for 5 mins followed by NADPH addition measured after 30 mins by LC-MS/MS analysis relative to control
# Format: ADME
# Set-up: scale not given: the % may be the effect or the level left
# ASSAY_CONTEXT: probe dextromethorphan, read-out: Activity
QUANTITY: activity at 0.5 h, 0.1 µM (%)
Respond numerically; units are % and should not be typed.

Give the measured activity at 0.5 h, 0.1 µM of CCCCCCCC(=O)CCc1ccc(O)c(OC)c1 .
112

====

# MEASUREMENT_TARGET: CYP2D6 (Homo sapiens)
# MEASUREMENT_PROTOCOL: Inhibition of CYP2D6 in human liver microsomes assessed as enzyme-mediated metabolite formation at 30 uM using dextromethorphan as substrate preincubated for 20 mins followed by substrate addition measured after 30 mins in presence of NADPH by LC-MS/MS analysis relative to control
# Assay type: ADME
# Parameters: scale not given: the % may be the effect or the level left
# ASSAY_CONTEXT: probe dextromethorphan, read-out: Activity
QUANTITY: activity at 0.5 h, 30 µM (%)
Your answer is read as %, so omit the unit and give the number.

# input compound: CCCCCCCC(=O)CCc1ccc(O)c(OC)c1 ; wanted: its activity at 0.5 h, 30 µM
80.1

====

# MEASUREMENT_TARGET: CYP3A4 (Homo sapiens, UniProt P08684)
# Sequence (P08684 whole entry): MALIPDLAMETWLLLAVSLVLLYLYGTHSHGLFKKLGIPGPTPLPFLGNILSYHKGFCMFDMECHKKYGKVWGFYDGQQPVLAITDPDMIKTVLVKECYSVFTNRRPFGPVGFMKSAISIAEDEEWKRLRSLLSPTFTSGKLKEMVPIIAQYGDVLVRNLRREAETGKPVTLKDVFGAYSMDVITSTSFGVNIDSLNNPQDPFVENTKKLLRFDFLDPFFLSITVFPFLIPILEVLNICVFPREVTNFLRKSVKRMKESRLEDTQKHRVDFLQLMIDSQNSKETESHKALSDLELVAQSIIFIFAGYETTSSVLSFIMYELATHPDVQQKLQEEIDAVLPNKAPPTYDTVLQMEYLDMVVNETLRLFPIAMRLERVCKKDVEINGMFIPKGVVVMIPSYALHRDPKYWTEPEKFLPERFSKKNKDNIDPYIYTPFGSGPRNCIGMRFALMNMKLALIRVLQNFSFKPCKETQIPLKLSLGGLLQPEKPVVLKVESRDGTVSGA
# MEASUREMENT_PROTOCOL: Inhibition of CYP3A4 in human liver microsomes assessed as enzyme-mediated metabolite formation at 0.3 uM using testosterone as substrate preincubated for 20 mins followed by substrate addition measured after 30 mins in presence of NADPH by LC-MS/MS analysis relative to control
# Format: ADME
# Design: scale not given: the % may be the effect or the level left
# ASSAY_CONTEXT: probe testosterone, read-out: Activity
QUANTITY: activity at 0.5 h, 0.3 µM

Checklist item: activity at 0.5 h, 0.3 µM tested on CYP3A4 (Homo sapiens, UniProt P08684), entry CCCCCCCC(=O)CCc1ccc(O)c(OC)c1 , value?
87.4%

====

# MEASUREMENT_TARGET: CYP2D6 (Homo sapiens, UniProt P10635)
# Sequence (P10635 whole entry): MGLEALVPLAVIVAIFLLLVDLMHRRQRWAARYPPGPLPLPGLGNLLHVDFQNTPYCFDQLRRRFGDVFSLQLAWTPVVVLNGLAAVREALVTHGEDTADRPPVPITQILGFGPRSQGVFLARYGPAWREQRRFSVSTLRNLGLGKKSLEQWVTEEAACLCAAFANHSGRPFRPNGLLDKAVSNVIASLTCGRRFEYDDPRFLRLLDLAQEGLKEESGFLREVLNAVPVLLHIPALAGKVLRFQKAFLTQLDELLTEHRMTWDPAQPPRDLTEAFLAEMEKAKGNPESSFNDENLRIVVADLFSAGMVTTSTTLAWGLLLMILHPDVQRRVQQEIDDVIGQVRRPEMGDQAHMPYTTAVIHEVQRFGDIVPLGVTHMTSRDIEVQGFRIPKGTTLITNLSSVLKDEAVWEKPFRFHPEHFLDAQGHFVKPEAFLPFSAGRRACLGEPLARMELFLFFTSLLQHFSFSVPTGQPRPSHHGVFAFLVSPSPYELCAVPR
# MEASUREMENT_PROTOCOL: Inhibition of CYP2D6 in human liver microsomes assessed as enzyme-mediated metabolite formation at 3 uM using dextromethorphan as substrate preincubated for 20 mins followed by substrate addition measured after 30 mins in presence of NADPH by LC-MS/MS analysis relative to control
# Assay type: ADME
# Set-up: scale not given: the % may be the effect or the level left
# ASSAY_CONTEXT: probe dextromethorphan, read-out: Activity
QUANTITY: activity at 0.5 h, 3 µM
Give the figure together with its unit, number first.

Name the recorded activity at 0.5 h, 3 µM for CCCCCCCC(=O)CCc1ccc(O)c(OC)c1 .
103%

Every entry's value here was drawn from ChEMBL document CHEMBL4007467.
